Hey, just so you know, these numbers are from patent US20130109846A1.

# target entity: human CD28 (human, UniProt P10747 19-220)
# experiment: cell-based or functional assay
assay readout: MLR assay (EC50) (nM)
Numeric answer only, unit nM assumed.

q: Check the records and state MLR assay (EC50) for 1h-99-246 (other) VH: EVQLLESGGGLVQPGGSLRLSCAASGFTFDSANMSWARQAPGKGLEWVSWIEASGGQTFYADSVKGRFTISRDNSKNTLYLQMNSLRAEDTAVYYCAKSPFGPLYGFDYRGQGTLVTVSS
a: 8

q: Check the records and state MLR assay (EC50) for 1h-99-2112 (other) VH: EVQLLESGGGLVQPGGSLRLSCAASGFTFKDKNMSWARQAPGKGLEWVSWIEAPGVQTFYADSVRGRFTISRDNSKNTLYLQMNSLRAEDTAVYYCARSPFGPLYGFDYRGQGTLVTVSS
a: 2
